# assay-system: Small ubiquitin-related modifier 1 (Homo sapiens) (UniProt P63165)
# Sequence (P63165 whole entry, looked up): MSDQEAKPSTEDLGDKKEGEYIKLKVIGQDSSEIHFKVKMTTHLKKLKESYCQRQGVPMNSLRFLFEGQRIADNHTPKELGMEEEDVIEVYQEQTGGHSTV
# assay-protocol: modulators of SUMO1 protein-protein interactions, primary screen, biochemical, uHTS (AID 602429)
# run-conditions: SUMO1 binding to a labelled peptide, TR-FRET, 1 h; at 20 µM; stronger effect = higher value
Among all 360,000 compounds or so, about 1,200 (0.33%) were called active. This excerpt belongs to a sample that is enriched for actives.
Entries annotated with measured inhibition
property-name: inhibition (%)

INSERT INTO results (smiles_notation, property_name, readout_units, observed_result) VALUES
  ('Cc1cc(C)c(-c2csc(NC(=O)CCCc3nc4ccccc4c(=O)[nH]3)n2)c(C)c1', 'inhibition', '%', 0.192),
  ('O=C(CCl)N(Cc1cccc([N+](=O)[O-])c1)c1cccc(Cl)c1', 'inhibition', '%', -8.32),
  ('Cc1cccc(-[n+]2c(-c3cccc(Br)c3)[nH]c3nc4ccccc4nc32)c1', 'inhibition', '%', 1.4),
  ('O=C(COC(=O)c1cc(=O)[nH]c2ccccc12)Nc1nc(-c2cccc(Br)c2)cs1', 'inhibition', '%', 2.92),
  ('CCCCn1c(SCc2ncc(-c3ccccc3)o2)nc2cc(S(N)(=O)=O)ccc21', 'inhibition', '%', 0.0839);

---

# assay-system: Small ubiquitin-related modifier 1 (Homo sapiens)
# assay-protocol: modulators of SUMO1 protein-protein interactions, primary screen, biochemical, uHTS (AID 602429)
# run-conditions: SUMO1 binding to a labelled peptide, TR-FRET, 1 h; at 20 µM
Out of some 360,000 compounds screened, about 1,200 (0.33%) were called active. No stated cut-off is given here; in the data, active means inhibition above about 37%; inactive means the rest. This excerpt belongs to a sample that is enriched for actives.
Possible outcomes: active, inactive

INSERT INTO measurements (molecule, classification) VALUES
  ('CCn1ncc(Br)c1C(=O)Nc1cc(C)ccc1F', 'inactive'),
  ('Cc1nc(-c2ccccc2)sc1-c1nnc(C2CC2)o1', 'inactive'),
  ('CSCC[C@H](NC(=O)NC1CCCC1)C(=O)O', 'inactive'),
  ('C=C(C)C(=O)Nc1cccc(C2=NOC3(C2)C[C@H](C(N)=O)N(C(=O)C(c2ccccc2)c2ccccc2)C3)c1 (stereo partly specified)', 'active'),
  ('O=S(=O)(NCCSc1ccccn1)c1ccc(Cl)cc1', 'inactive'),
  ('CC1(C)CC(=O)C=C(c2ccc(COC(=O)c3cc(F)cc(F)c3)cc2)C1=O', 'inactive'),
  ('CCOC(=O)C1=C(C)NC(C)=C(C(=O)OCC)C1C1=COCCO1', 'inactive'),
  ('COCCOC(=O)c1c(C)oc2cc(Br)c(OCC(N)=O)cc12', 'inactive'),
  ('CCCNC(=O)c1cc(C2CCCN(C(=O)c3ccc4c(c3)CCO4)C2)on1 (stereo unspecified)', 'inactive'),
  ('O=C(Nc1cc2c3c(c1)C1CCCC1CN3CC1CCCC21)c1ccc([N+](=O)[O-])cc1 (stereo unspecified)', 'inactive'),
  ('COc1ccc(OC)c(NC(=S)N2CCc3ccccc3C2)c1', 'inactive');

---

# assay-system: Small ubiquitin-related modifier 1 (Homo sapiens)
# assay-protocol: modulators of SUMO1 protein-protein interactions, primary screen, biochemical, uHTS (AID 602429)
# run-conditions: SUMO1 binding to a labelled peptide, TR-FRET, 1 h; at 20 µM
Screen size: about 360,000 compounds; about 1,200 (0.33%) were called active. Cut-off read from the data, not from the text of the source: active = inhibition above about 37%; inactive = the rest. This excerpt belongs to a sample that is enriched for actives.
Possible outcomes: 1 (active), 0 (inactive)

INSERT INTO results (compound, assay_system, classification) VALUES
  ('COc1ccc(CCNC(=O)C(=O)Nc2ccc3nc4n(c(=O)c3c2)CCCCC4)cc1OC', 'Small ubiquitin-related modifier 1 (Homo sapiens)', 0),
  ('O=C(NNC(=S)NC(=O)c1cn(-c2ccccc2)nc1-c1ccccc1)c1ccncc1', 'Small ubiquitin-related modifier 1 (Homo sapiens)', 0),
  ('COc1ccc(-c2nnc(SC(=O)N3c4ccccc4Sc4ccccc43)o2)cc1', 'Small ubiquitin-related modifier 1 (Homo sapiens)', 0),
  ('CCOc1cccc2c1OC1(CCCCC1)N1N=C(c3cccnc3)CC21 (configuration not stated)', 'Small ubiquitin-related modifier 1 (Homo sapiens)', 0),
  ('COc1ccc(-c2nnc(-c3ccc4ccccc4c3)o2)cc1', 'Small ubiquitin-related modifier 1 (Homo sapiens)', 1),
  ('COc1ccc(-c2nnc(SC(C)C(=O)NC3CC3)o2)cc1 (configuration not stated)', 'Small ubiquitin-related modifier 1 (Homo sapiens)', 0),
  ('Cc1ccccc1C(=O)Nc1cccc(-c2nnc(SCC(=O)O)n2C)c1', 'Small ubiquitin-related modifier 1 (Homo sapiens)', 0);
